// pIC50 lookup, one value per entry
test system: human blastocyst-derived stem (hBS) cells; assay: Cytotoxicity test, viability by resazurin reduction, hBS cells; assay type: cell-based; details: Homo sapiens, 240 h; 10 days exposure, viability
pIC50: −log10 of the molar value.

molecule: O=c1[nH]cc(F)c(=O)[nH]1
pIC50: 7.35
//
molecule: CC1=C(/C=C/C(C)=C/C=C/C(C)=C/C(=O)O)C(C)(C)CCC1 [All-trans Retinoic Acid, all-trans retinoic acid]
pIC50: 4.76
//
molecule: CC1=C(/C=C/C(C)=C/C=C/C(C)=C\C(=O)O)C(C)(C)CCC1 [13-cis Retinoic Acid, 13-cis retinoic acid]
pIC50: 4.84

---

# IC50 listing for each entry below
test system: human blastocyst-derived stem (hBS) cells; test: Cytotoxicity test, viability by intracellular ATP content (CellTiterGlo), hBS cells; assay type: cell-based; settings: Homo sapiens, 240 h; after 10 days exposure; read-out: IC50, FIG. 5 a), undifferentiated hBS cells, ATP assay

molecule: CC1=C(/C=C/C(C)=C/C=C/C(C)=C\C(=O)O)C(C)(C)CCC1 [13-cis Retinoic Acid, 13-cis retinoic acid]
units-of-measure: µM
IC50: 15.8

molecule: CC1=C(/C=C/C(C)=C/C=C/C(C)=C/C(=O)O)C(C)(C)CCC1 [All-trans Retinoic Acid, all-trans retinoic acid]
units-of-measure: µM
IC50: 30.4

---

test system: human foreskin fibroblasts (hFFs); assay: Cytotoxicity test, viability by intracellular ATP content (CellTiterGlo), hFFs; format: cell-based; conditions: Homo sapiens, Fibroblast, 240 h; 10 days exposure, viability; 'No IC50' = none at 100 μM; read-out: mean IC50 ATP hFFs
metric: IC50 (nM)

compound: O=c1[nH]cc(F)c(=O)[nH]1 [5-Fluorouracil]
units-of-measure: nM
result: 304
